System: U251 CNS
Assay: NCI tumour cell line growth inhibition, 48 h
MEASURED_PROPERTY: TGI (µM)
The answer is to be given in µM; state only the numeric part.

{"columns": ["COMPOUND", "QUANTITY_UNIT", "TGI"],
 "data": [
  ["COc1cc(/C=C2\\CCC(C)C3=C(c4cc(OC)c(OC)c(OC)c4)C(C#N)=C(N)OC32)cc(OC)c1OC (stereo not given)", "µM", 25.7],
  ["C=C1CC[C@@H]2C(C)(C)C(O)CCC2(C)C1COc1ccc2ccc(=O)oc2c1 (stereo not given in full)", "µM", 34.3]
]}

Now for the compound whose TGI we want.
Data request: Need TGI, item O=c1cc(N2CCOCC2)oc2c(-c3ccc4c(c3)OCCO4)csc12
Data returned: 35
